molecular target: human adenosine A1 receptor (Homo sapiens, UniProt P30542); experiment: Yeast β-Galactosidase reporter gene assay, inhibition of NECA-induced activity, strain CY12660; conditions: A1 Yeast IC50 (nM), Table 11, Effect of N6-Substituent
Sequence (P30542 whole entry): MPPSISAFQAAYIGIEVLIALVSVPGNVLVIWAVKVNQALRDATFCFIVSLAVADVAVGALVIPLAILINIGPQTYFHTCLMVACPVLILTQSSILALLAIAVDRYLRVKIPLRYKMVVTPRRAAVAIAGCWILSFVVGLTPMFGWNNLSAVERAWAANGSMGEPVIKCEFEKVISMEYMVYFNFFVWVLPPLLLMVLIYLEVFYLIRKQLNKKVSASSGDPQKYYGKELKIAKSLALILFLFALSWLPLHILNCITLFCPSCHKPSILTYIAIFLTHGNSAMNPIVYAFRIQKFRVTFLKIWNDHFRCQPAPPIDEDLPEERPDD
Assay Endpoint: IC50 (nM)
Give just the number in nM; leave the unit off.

Dear colleague, please send me the reported IC50 for CC(=O)NC(C)CNc1nc(-c2ccccc2)nc2[nH]c(C)c(C)c12 (stereo not shown) [Compound 1104] when you can.
58.7

----------
biological target: human A1 receptor subtype (Homo sapiens, UniProt P30542); test: biochemical; conditions: A1 Binding Ki (nM), Table 6, Effect of N6-Substituent
Sequence (P30542 whole entry): as above
Assay Endpoint: Ki (nM)
Give just the number in nM; leave the unit off.

Dear colleague, please send me the reported Ki for Cc1[nH]c2nc(-c3ccccc3)nc(N[C@@H]3CCC[C@H]3O)c2c1C when you can.
32.1

meta.source: patent US6686366B1
